Details: buffer; pH 7.4; 200.0 µM
Overview of recorded solubility kinetic for various compounds

Sample answers from the record:
{"Compound": "Cl.O=C(CCl)N1CCN(CC(=O)N2CCCC2)CC1", "Recorded Result": "> 46.5 µg/mL"}
{"Compound": "COc1cc(NC(=O)CCN2CCN(C)CC2)cc(OC)c1", "Recorded Result": "> 46.1 µg/mL"}
{"Compound": "Cc1ccc(NC(=O)C2CCCN2C(=O)NCc2ccccc2)cc1 (stereo unspecified)", "Recorded Result": "5 µg/mL"}
{"Compound": "Cc1nnc(NC(=O)C2CCCC2)s1", "Recorded Result": "> 31.7 µg/mL"}
{"Compound": "O=C(NCCc1c[nH]c2ccccc12)C(=O)NCC1CCCO1 (stereo unspecified)", "Recorded Result": "9 µg/mL"}

--- query ---
// recorded solubility kinetic for `CCc1cc(C(=O)c2ccc(OC)cc2)c(NC(=O)CN2CCCCC2)s1` : < 0.4 µg/mL

* * *

Overview of recorded solubility kinetic for various compounds
Conditions: buffer; pH 7.4; 200.0 µM

{"Compound": "NS(=O)(=O)c1ccc(NC(=O)CCC(=O)N2CCOCC2)cc1", "Recorded Result": "> 51.2 µg/mL"}
{"Compound": "COc1ccc(N(C=O)C(C(=O)Nc2c(C)cccc2C)c2ccccc2)cc1 (stereo not drawn)", "Recorded Result": "1.6 µg/mL"}
{"Compound": "c1csc(-c2nc3ccccc3s2)c1", "Recorded Result": "0.7 µg/mL"}
{"Compound": "Cc1cc(C)n2c(=O)c3ccc(Cl)cc3nc2c1C#N", "Recorded Result": "1.3 µg/mL"}
{"Compound": "Cc1ccc(C2=NN(CC(=O)NCCC(C)C)C(=O)CC2)cc1", "Recorded Result": "> 47.3 µg/mL"}

// recorded solubility kinetic for `O=C(COc1ccccc1)Nc1cc(Cl)ccc1Cl` : < 0.6 µg/mL

// recorded solubility kinetic for `CC(=O)c1ccc(-n2c(C)c(C(C)=O)c3cc(O)ccc32)cc1` : < 0.7 µg/mL

// recorded solubility kinetic for `O=[N+]([O-])c1ccc(SCCc2ccncc2)cc1` : 31.5 µg/mL

// recorded solubility kinetic for `O=C(Cc1ccccc1)Nc1ncccc1Cl` : > 37 µg/mL

// recorded solubility kinetic for `CC(=O)Nc1c(C(N)=O)oc2ccc(Cl)cc12` : > 37.9 µg/mL

// recorded solubility kinetic for CC12CCC(C/C1=N/O)C2(C)CBr (stereo not drawn) : > 36.9 µg/mL

// recorded solubility kinetic for CCOc1cc(S(=O)(=O)NCC2CCCO2)ccc1F (stereo not drawn) : > 45.5 µg/mL

// recorded solubility kinetic for `COc1ccc(Oc2ncccc2[N+](=O)[O-])cc1` : > 36.9 µg/mL

* * *

Conditions: buffer; pH 7.4; 200.0 µM
# binarize solubility kinetic: threshold 7 µg/mL inclusive, high side 1, low side 0

// known answers, use as guide
{"Compound": "O=C(Nc1ccc(Oc2ccsc2C(=O)O)cc1)c1ccccc1", "Group Label": 1}
{"Compound": "O=C(NCC(O)c1ccc2ccccc2c1)c1c(F)cccc1F (stereo unspecified)", "Group Label": 1}
{"Compound": "COc1ccc2c(c1)nc(CN1CCN(CCO)CC1)n2C", "Group Label": 1}
{"Compound": "CCCSc1nc2sc3c(c2c(=O)[nH]1)CC(C)(CC)OC3 (stereo unspecified)", "Group Label": 0}
{"Compound": "O=C(Nc1ccccn1)c1cc2ccccc2cc1O", "Group Label": 0}
{"Compound": "C[N+]1(C)[C@@H]2CC[C@H]1CC(OC(=O)C(CO)c1ccccc1)C2.O=[N+]([O-])[O-] (stereo partly specified)", "Group Label": 1}
{"Compound": "CC1C(=O)N2CCCc3cc(NC(=O)C(=O)NCc4ccccn4)cc1c32 (stereo unspecified)", "Group Label": 1}
{"Compound": "O=C(N[C@H]1CC1c1ccccc1)c1ccc([N+](=O)[O-])cc1 (stereo partly specified)", "Group Label": 0}
{"Compound": "CCOC(=O)c1cc(C#N)c(SCC(=O)O)[nH]c1=O", "Group Label": 1}
{"Compound": "COc1ccc(S(=O)(=O)N2CCOCC2)cc1C(=O)N(C)Cc1ccco1", "Group Label": 1}

Then there is this compound:
Request: Please indicate if the recorded solubility kinetic for `O=C1C(Cl)=C(N2CCCC2)C(=O)N1c1ccc(F)cc1` meets or exceeds 7 µg/mL.
Response: 1

* * *

Overview of recorded solubility kinetic for various compounds
Conditions: buffer; pH 7.4; 200.0 µM
Please state the figure in µg/mL; there is no need to write the unit.

// recorded solubility kinetic for `CC(C)OC(=O)/C(C#N)=C\c1cccnc1` : 28.2

// recorded solubility kinetic for `COc1ccc(NC(C)=O)cc1S(=O)(=O)N1CC=C(c2ccccc2)CC1` : 2.6

// recorded solubility kinetic for `COC(=O)/C=C1\N/C(=N/c2nc(C)c3cc(OC)ccc3n2)NC1=O` : 1.4

// recorded solubility kinetic for `Cc1ccoc1C(=O)Nc1ccc2ccccc2c1` : 7.5

// recorded solubility kinetic for `c1ccc(CNc2nc(-c3cccnc3)cs2)cc1` : 22.4

* * *

Overview of recorded solubility kinetic for various compounds
Conditions: buffer; pH 7.4; 200.0 µM
Please state the figure in µg/mL; there is no need to write the unit.

{"Compound": "CC1(/[N+]([O-])=C/c2cccc(Cl)c2)CCCCC1=O (stereo not drawn)", "Metric": "solubility kinetic", "Display Unit": "µg/mL", "Recorded Result": 36.2}
{"Compound": "COCCN(C(=S)Nc1cccc(C)c1)C(C)c1cccnc1 (stereo not drawn)", "Metric": "solubility kinetic", "Display Unit": "µg/mL", "Recorded Result": 48.2}
{"Compound": "Cc1ccc(S(=O)(=O)CC(=O)Nc2cc(C)on2)cc1", "Metric": "solubility kinetic", "Display Unit": "µg/mL", "Recorded Result": 37.6}
{"Compound": "Cc1ccc(N2CC(C(=O)Nc3ccccc3N3CCCC3)CC2=O)cc1 (stereo not drawn)", "Metric": "solubility kinetic", "Display Unit": "µg/mL", "Recorded Result": 21.4}

// recorded solubility kinetic for `ONC(=Nc1ccccc1Cl)c1c(F)cccc1F` : 19

// recorded solubility kinetic for `CC1CCN(CC(=O)NC2CCCCC2)CC1.Cl` : 37.4

* * *

Details: buffer; pH 7.4; 200.0 µM
# binarize solubility kinetic: threshold 20 µg/mL inclusive, high side True, low side False

Request: Please indicate if the recorded solubility kinetic for CN1C(=O)N(C)C(c2ccccc2Cl)C2=C1CC(C)(C)CC2=O (configuration not stated) meets or exceeds 20 µg/mL.
Response: True

* * *

Details: buffer; pH 7.4; 200.0 µM
Overview of recorded solubility kinetic for various compounds

Sample answers from the record:
{"Compound": "O=C(NCCN1CCCCC1)c1cc(Cl)ccc1Cl", "solubility kinetic": "39.8 µg/mL"}
{"Compound": "CCCC12CN3CCN(C1)CC(CCC)(C3)C2=O", "solubility kinetic": "30.9 µg/mL"}
{"Compound": "CC(C)CC(=O)Nc1ncc([N+](=O)[O-])s1", "solubility kinetic": "> 34.4 µg/mL"}
{"Compound": "O=C(/C=C/c1ccccc1)OCC(=O)c1c[nH]c2ccccc12", "solubility kinetic": "3.9 µg/mL"}

// recorded solubility kinetic for `NS(=O)(=O)c1cc(C(=O)OCC(=O)Nc2ccc3c(c2)OCO3)ccc1Cl` : 16.9 µg/mL

// recorded solubility kinetic for CC1(C)CC(C(N)=S)CCO1 (configuration not stated) : 23.5 µg/mL

// recorded solubility kinetic for Cc1cc2oc(=O)cc(CN3CCCCC3C)c2cc1Cl (configuration not stated) : 4.5 µg/mL

// recorded solubility kinetic for `CN=C(c1ccc([N+](=O)[O-])cc1)N1CCCCC1` : > 37.1 µg/mL

// recorded solubility kinetic for `Clc1ccc(CN2CCC(c3ccccc3)CC2)cc1` : 4.3 µg/mL

// recorded solubility kinetic for `Cc1ccc(OS(=O)(=O)c2ccc(N3C(=O)CCC3=O)cc2)cc1` : 18.3 µg/mL

// recorded solubility kinetic for `N/C(=N\OC(=O)c1ccc(Cl)c([N+](=O)[O-])c1)c1ccccn1` : 2.7 µg/mL

// recorded solubility kinetic for `Nc1nc(-c2ccc3ccccc3c2)cs1` : 11.8 µg/mL

* * *

Conditions: buffer; pH 7.4; 200.0 µM
# binarize solubility kinetic: threshold 40 µg/mL inclusive, high side Yes, low side No

{"Compound": "COCC(=O)N1CCCC(C(=O)c2ccc3c4c(cccc24)CC3)C1 (centres undefined)", "Group Label": "Yes"}
{"Compound": "CCNC(=O)NC(=O)C(C)OC(=O)c1cccn1C (centres undefined)", "Group Label": "Yes"}
{"Compound": "CS(=O)(=O)c1ccc(C(=O)NCc2ccc(F)cc2)cc1", "Group Label": "No"}
{"Compound": "Cn1c(O)c(C=NCCCCCCCCCCC(=O)O)c(=O)n(C)c1=O", "Group Label": "Yes"}

Request: Please indicate if the recorded solubility kinetic for `CCOC(=O)c1csc(N)c1-c1ccc([N+](=O)[O-])cc1` meets or exceeds 40 µg/mL.
Response: No

Request: Please indicate if the recorded solubility kinetic for `COc1ccc(F)cc1COc1nc(C)nc2ccccc12` meets or exceeds 40 µg/mL.
Response: No

Request: Please indicate if the recorded solubility kinetic for `O=C(COC(=O)c1ccco1)Nc1cc(S(=O)(=O)N2CCCCC2)ccc1Cl` meets or exceeds 40 µg/mL.
Response: No

Request: Please indicate if the recorded solubility kinetic for `COc1cccc(CN2C(=O)c3ccccc3S2(=O)=O)c1` meets or exceeds 40 µg/mL.
Response: No

Request: Please indicate if the recorded solubility kinetic for `CN(CC(=O)Nc1cccc(F)c1)CC(=O)Nc1ccccc1-c1ccccc1` meets or exceeds 40 µg/mL.
Response: No

Request: Please indicate if the recorded solubility kinetic for CC(NC(=O)C1c2ccccc2Oc2ccccc21)C1CCCO1 (centres undefined) meets or exceeds 40 µg/mL.
Response: No
